Values compiled from patent US4289786A.

Assay: Acute toxicity--2 (oral, mice)
Type: in vivo
Details: mouse, in vivo, ddY mice, observation one week, hydrochlorides
// reported LD50 at 168 h per item
// note: answer is a bare numeric in mg/kg

// worked examples, LD50 at 168 h included
CC(C)=CCCC(C)=CCCC(C)=CCCC(=O)OCCN(CC=C(C)CCC=C(C)C)CC=C(C)CCC=C(C)C 7000
CC(C)=CCCC(C)=CCCC(C)=CCCC(=O)OCCN1CCN(CCO)CC1 4000

[Q] Form field: reported LD50 at 168 h of CC(C)=CCCC(C)=CCCC(C)=CCCC(=O)OC(C)(C)CN(C)C
[A] 8400

---

Tested on: indomethacin-induced ulcers on the gastric mucosa
Assay: Indomethacin-induced ulcer (antiulcerogenic activity)
Format: in vivo, male Donryu rats
Conditions: Rattus norvegicus, 7 h; indomethacin 15 mg/kg s.c.; test compound 300 mg/kg oral, 10 minutes prior; hydrochlorides except one quaternary ammonium salt; read-out: Prevention ratio
Measure: inhibition in vivo at 300 mg/kg (%)
// note: answer is a bare numeric in %

// worked examples, inhibition in vivo at 300 mg/kg included
Molecule	Assay system	inhibition in vivo at 300 mg/kg, %
CC(C)=CCCC(C)=CCCC(C)=CCCC(=O)OC(C)(C)CN(C)C	indomethacin-induced ulcers on the gastric mucosa	91.7
CC[N+](CC)(CC)CCOC(=O)CCC=C(C)CCC=C(C)CCC=C(C)C	indomethacin-induced ulcers on the gastric mucosa	68.8

Then there is this molecule:
[Q] Form field: reported inhibition in vivo at 300 mg/kg of CC(C)=CCCC(C)=CCCC(C)=CCCC(=O)OCCCN(C)C [(4), 3-Dimethylaminopropyl farnesylacetate]
[A] 65.8

---

System: indomethacin-induced ulcers on the gastric mucosa
Assay: Indomethacin-induced ulcer (antiulcerogenic activity)
Assay type: in vivo, male Donryu rats
Conditions: Rattus norvegicus, 7 h; indomethacin 15 mg/kg s.c.; test compound 300 mg/kg oral, 10 minutes prior; hydrochlorides except one quaternary ammonium salt; read-out: Prevention ratio
Procedure: After fasting for 24 hours, male Donryu rats weighing 210 to 230 grams were administered subcutaneously with indomethacin suspended in 1% aqueous solution of carboxymethylcellulose at a dosage level of 15 mg/kg. Seven hours later, the animals were sacrificed by ether inhalation. The rat stomach was cut open and the indomethacin-induced ulcers appearing on the gastric mucosa were measured for their length in mm. The total length of ulcers per animal was designated as the ulcer index. […]
Label Condition met when inhibition in vivo at 300 mg/kg is at or above 80%; otherwise label Condition not met.

Compound	Assay system	Assigned class
CCN1CCC(OC(=O)CCC=C(C)CCC=C(C)CCC=C(C)C)CC1	indomethacin-induced ulcers on the gastric mucosa	Condition not met
CCN(CC)CCOC(=O)CCC=C(C)CCC=C(C)CCC=C(C)C [(1), 2-diethylaminoethyl farnesylacetate]	indomethacin-induced ulcers on the gastric mucosa	Condition not met
CC(C)=CCCC(C)=CCCC(C)=CCC(Cc1ccccc1)C(=O)OCCN(C)C (centres unmarked)	indomethacin-induced ulcers on the gastric mucosa	Condition met
CCN(CCOC(=O)CCC=C(C)CCC=C(C)CCC=C(C)C)c1ccccc1	indomethacin-induced ulcers on the gastric mucosa	Condition not met
CC(C)=CCCC(C)=CCCC(C)=CCCC(=O)OCCN1CCN(CCO)CC1	indomethacin-induced ulcers on the gastric mucosa	Condition met

[Q] Please check the record CC(C)=CCCC(C)=CCCC(C)=CCCC(=O)OCC=C(C)CCC=C(C)C [Geranyl farnesylacetate] and state if its inhibition in vivo at 300 mg/kg is at or above 80%.
[A] Condition not met

[Q] Please check the record CC(C)=CCCC(C)=CCCC(C)=CCCC(=O)OCC1CCCCN1C (centres unmarked) and state if its inhibition in vivo at 300 mg/kg is at or above 80%.
[A] Condition not met
